apparent KD of MS2 coat protein: recorded values
# Test system: MS2 coat protein
# experimentSummary: apparent KD of MS2 coat protein; higher = weaker reporter binding
# particulars: Eterna round: R107; input ligand: tryptophan 2.4 mM
Reply with just the number (in nM).

Below are worked cases with known answers.
>>> numericvalue("UUGGGUUUGUGAAGGAGCGGGAAUGUUUUAUAGUGGAUCCUAACAUGAGGAUCACCCAUGUCCCAGGUAGGUCGCGCGGGUUUGG [12.S]")
55.5
>>> numericvalue("ACUAGAGGUGGAAGGAGCGGGAGACAUGAGGAUCACAUGAGGAUCACCCAUGUAGGAUCAUCCCAGGUAGGUCGCCAUGUCGAAA [,mmlmullin]")
293
>>> numericvalue("CGCCGCGCGGGAAGGAGCGCGAUUACAUAACAUGAGGAUCACCCAUGUAAGAAAUUAUUCAUGCAGGUAGGUCGCCCGCGCGGCG [Same State Arginine B GF 5]")
22.8

Data request: Give the measured apparent KD of MS2 coat protein for GGACUAACUCGAAGGAGCGACGCGCAGAAACUGCAAUUUCCUCCACACGAGGAUCACCCGUGUCAGGUAGGUCGCGAGUUAGUCG [ArgBX 29]
Data returned: 16

====

# Test system: MS2 coat protein
# experimentSummary: apparent KD of MS2 coat protein, switch ON state; designed switch direction (-1 OFF switch, 1 ON switch): -1; higher = weaker reporter binding
# particulars: FMN input: 0 or 200 uM; Eterna round: R93 (includes R88 designs)
apparent KD of MS2 coat protein: recorded values
Reply with just the number (in µM).

>>> numericvalue("UAUAGACAUGAGGAUCACCCAUGUGAGGAUAUCAGUAACUACAAAACAUCACAUACAAUGAGAAGGCACAGAAA [JR_Exc001_Sub014]")
0.04

Data request: Provide MS2 coat protein apparent KD of MS2 coat protein reading for AACAUGUGAGGAUAUAAAAUGAAUAUAAAUUAUUAUCUUGAUUAGAAGGCACAUGAGGAUCACCCAUGUCUGAA [E4-1.2] .
Data returned: 0.0238

Data request: Provide MS2 coat protein apparent KD of MS2 coat protein reading for GCUGUGCUAGGAUAUACAUGAGGAUCACCCAUGUGAGAGAAAAAAGUGAGAAAGAAAAGUAGAAGGAGCGUAGG [salish99-ex3-100] .
Data returned: 0.0291

Data request: Provide MS2 coat protein apparent KD of MS2 coat protein reading for GAAAAGGAAGGAUAUACAAAGGGACCUUAUAAAAGAAGAAGACAUGAGGAUCACCCAUGUAGAAGGUCCAGAUA [Diusanatra] .
Data returned: 0.0195

====

apparent KD of MS2 coat protein: recorded values
# System: MS2 coat protein
# experimentSummary: apparent KD of MS2 coat protein; higher = weaker reporter binding
# particulars: Eterna round: R107; input ligand: none
The reply should read as a number followed by its unit.

Below are worked cases with known answers.
>>> result("UACUUGCUGACGGCCGCCACUAGAACAUGAGGAUCACCCAUGUAUUCUAGUCGUCAUGGGUGGACUAGGACCGGGUCAGCAAGAU [(Trp1)-(Ms2)-(T)'-(M)'-(Trp2)_Design8]")
"33.8 nM"
>>> result("CGCCGCGCGGGAAGGAGCGCGAUUACAUAACAUGAGGAUCACCCAUGUAAGAAAUUAUUCAUGCAGGUAGGUCGCCCGCGCGGCG [Same State Arginine B GF 5]")
"22.3 nM"

Data request: Give the measured apparent KD of MS2 coat protein for AUACAUGAGGAUCACCCAUGUCAUUCAGAAGGAGCGUCAUUAUUGACAGGUAGGUCGCUGAUAAAAUUUUUAUACAUUAUGUUUA [JR_SSArginiA_Sub014]
Data returned: 16.3 nM

====

# Tested on: MS2 coat protein
# experimentSummary: apparent KD of MS2 coat protein, switch ON state; designed switch direction (-1 OFF switch, 1 ON switch): -1; higher = weaker reporter binding
# particulars: FMN input: 0 or 200 uM; Eterna round: R93 (includes R88 designs)
apparent KD of MS2 coat protein: recorded values
Reply with just the number (in nM).

Below are worked cases with known answers.
>>> numericvalue("GACAUGCUAGGAUAUACAGGACAAAUUGGGCAUCCGCAUGGACAUGAGGAUCACCCAUGUAGAAGGAGUAGAAA [Inonmatixe]")
368
>>> numericvalue("GAAAAGUCAGGAUAUGCAGAUAAAAAAACGAAAAAAAAUCUGCAGAAGGGACAUGAGGAUCACCCAUGUAAAAA [Mat - Exclusion 4 - Mayanna - D109]")
45.6
>>> numericvalue("AGAAAACAUGAGGAUCACCCAUGUAAGGAUAUGCUGAAAAACACGGAAAAAACGUGCAGCAGAAGGUACAAAAA [Mat - Exclusion 1 - Eli mod - D97]")
17.8
>>> numericvalue("AAGAAGUGAGGAUAUACAAAAUAAAAGAAAAGAAAGAAAGAACAUGAGGAUCACCCAUGUAGAAGGCACAAGAA [Sekhemkare Amenemhat V]")
22
>>> numericvalue("CUCUUGUCAGGAUAUCAAAGAAAAGAAAAGAAAGAAAAGAAUGAGAAGGGACAUGAGGAUCACCCAUGUAAGAA [EteRNA is fun!]")
32.1

Proceed to the following item.
Data request: Give the measured apparent KD of MS2 coat protein for AAAAAGAGAGGAUAUACAUGAGGAUCACCCAUGUGAAAGACGAAAAAAAGUCUAAAAUGUAGAAGGCUCAAAAA [65%, Moding Exclusion3-cac2, 13]
Data returned: 23.1

====

# Tested on: MS2 coat protein
# experimentSummary: apparent KD of MS2 coat protein; designed switch direction (-1 OFF switch, 1 ON switch): 1; higher = weaker reporter binding
# particulars: input ligand: none
Classification field: Fulfilled = apparent KD of MS2 coat protein at or over 100 nM; Not fulfilled = apparent KD of MS2 coat protein under 100 nM.

Here's what some known entries look like.
>>> assignedcategory("AAGUGAAUAGUGAUUACAUGAGGAUCACCCAUGUGGUGGAUGCAGGAUAUUAUUAGACCGUACAAUAAGAAGGGCGUAAUCACC [Eternabot solution 44] (Eterna round: R96, puzzle: Same State NG 3)")
"Fulfilled"
>>> assignedcategory("UACAUACGCGGAGGAUAUGGGCGAGGCACGGAGGUCCGCGCCAAAACAUGAGGAUCACCCAUGUCCCAGAAGGCCGCACAAACU [Oreslaed] (Eterna round: R96, puzzle: Same State NG 2)")
"Not fulfilled"
>>> assignedcategory("AUUUUUAAUGCAGGAUAUGAUUAACAUGAGGAUCACCCAUGUGGUGUUGUGAGUAAGGAGAGUGAUCAGAAGGGCAGUUUUUUU [JMF's solution 79] (Eterna round: R96, puzzle: Same State NG 2)")
"Fulfilled"
>>> assignedcategory("CCAGCUACUCACAUGAGGAUCACCCAUGUCUAGGAUAUAGUAGAGGAUAUUGGCGGAUGGAAGACCGAGAAGGCUACCUCCUGA [Eternabot solution 49] (Eterna round: R96, puzzle: Same State NG 3)")
"Not fulfilled"
>>> assignedcategory("GGAGCCAAGGCAGGAUAUUCAUAUAAAUUAACAUGAGGAUCACCCAUGUAGGCCAGAAGGCCUUGGGAGAAGGGCCAUGGCUCG [Xeonanis - 13 mod8] (Eterna round: R96, puzzle: Same State NG 2)")
"Fulfilled"

Data request: Exam item: decide whether the reported apparent KD of MS2 coat protein for UUCAAUGGGAUAGGAUAUCCUGCGGCGAGGCGUGGAGAAGGGUCAAGUACAUGAGGAUCACCCAUGUUUCGGAAAUAUUCCGAG [Eternabot solution 29] (Eterna round: R96, puzzle: Same State NG 1) is at least 100 nM.
Data returned: Fulfilled

Data request: Exam item: decide whether the reported apparent KD of MS2 coat protein for UGGUACAUGGGAGGAUAUCUCGUGGAGACAUGAGGAUCACCCAUGUAGAUGGCCGGUAACCGGUGAGAGAAGGCCCAUGUACCU [JL SSNG1 3.69] (Eterna round: R96, puzzle: Same State NG 2) is at least 100 nM.
Data returned: Fulfilled

====

# System: K4 kissing-loop RNA reporter;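 note: bound reporter read as fluorescence of individual clusters on recovered sequencing chips by microscopy, with normalized cluster intensities fitted with a binding model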
# experimentSummary: apparent KD of K4 kissing-loop reporter; higher = weaker reporter binding
# particulars: Eterna round: R107; input ligand: FMN 200 uM
apparent KD of K4 kissing-loop reporter: recorded values
Reply with just the number (in µM).

Below are worked cases with known answers.
>>> numericvalue("AGCAGUCACUCGAAAAACCAUCGAAGAUGGCGAGGACCGGUACGGCCGCCACUCGGAGUGAUGUUCCGAAGACUGCAAAAUAAAA [#SwitchBubble 15]")
0.35
>>> numericvalue("UGGCGGCAAGGGUUAUUGGAAAGUAUUCGUCGAGGACCGGUACGGCCGCCACUCGAACACCAGUGAUGUUGGUCUGGUUUAAGCU [Exclusion Tryptophan A GF 22]")
0.447
>>> numericvalue("AGAUUCGACACGGCCGCCACUUCCGGUGGCUGGUGUCAUGGUGCGCGUGAGUGAUGUUUAUGUGGAAGGACCGGGUGUUGAGUCU [whbob_Ex_Tryp_B_w41]")
0.597
>>> numericvalue("UCGAAAUGCGUCUCCUAGUUUCUCCGGGAAGGAGCGUGGAUAACCGCAGGUAGGUCGCCCGGGAGCCGGACCAGUGAUGUUGGUC [Exclusion Arginine A Gf 30]")
0.181
>>> numericvalue("UAAUAAAUUCCAGCGAUAUCGCUCUUCGAAGGAGCGGGCGAAAGUCCAGGUAGGUCGCGGAGAGUGAUGUUCUUUGCGGCGCUGG [whbob_Ex_Arginine_A_2t134]")
0.408

Proceed to the following item.
Data request: Give the measured apparent KD of K4 kissing-loop reporter for AAGCCGGUUGCGGCCGCCACUUUUGCGGACCCGGUGCAGUGAUGUUGCGCAUCGCGGGUUGCUUAAAGGACCGGGCACCUCUAAC [theeternabot_sameState_KL_Trp_B_7]
Data returned: 0.418
